assay.comment: Particle sizing by dynamic light scattering (DynaPro plate reader), in vitro formulations
Assay type: physicochemical
condition.info: in vitro formulation a: Cationic lipid/Example 73/DSPC/Chol 45/10/15/30 wt %, lipid:siRNA 25:1
Below, each of the compounds is paired with its reported Size value.

compound | Size / nm
CCCCC/C=C\C/C=C\CCCCCCCCOC[C@H](CCN(CC)CC)OCCCCCCCC/C=C\C/C=C\CCCCC [Example 23] | 128
CCCCC/C=C\C/C=C\CCCCCCCCOC[C@@H](CCN1CCCC1)OCCCCCCCC/C=C\C/C=C\CCCCC [Example 20] | 146
CCCCC/C=C\C/C=C\CCCCCCCCOCC(CCN(C)CCc1ccccn1)OCCCCCCCC/C=C\C/C=C\CCCCC (stereo not drawn) [Example 10] | 161
CCCCC/C=C\C/C=C\CCCCCCCCOCC(CCN1CCN(c2ccccc2)CC1)OCCCCCCCC/C=C\C/C=C\CCCCC (stereo not drawn) [Example 5] | 157
CCCCC/C=C\C/C=C\CCCCCCCCOCC(CCN1CCC(OC)CC1)OCCCCCCCC/C=C\C/C=C\CCCCC (stereo not drawn) [Example 19] | 152
CCCCC/C=C\C/C=C\CCCCCCCCOC[C@H](CCN1CCCC1)OCCCCCCCC/C=C\C/C=C\CCCCC [Example 21] | 128
CCCCC/C=C\C/C=C\CCCCCCCCOC[C@@H](CCN(CC)CC)OCCCCCCCC/C=C\C/C=C\CCCCC [Example 22] | 130
CCCCC/C=C\C/C=C\CCCCCCCCOCC(CCN(CCOC)CCOC)OCCCCCCCC/C=C\C/C=C\CCCCC (stereo not drawn) [Example 18] | 104
CCCCC/C=C\C/C=C\CCCCCCCCOCC(CCN1CCN(C)CC1)OCCCCCCCC/C=C\C/C=C\CCCCC (stereo not drawn) [Example 6] | 178
